Data credit: patent US20220274980A1

- target_of_assay: ENL YEATS domain (association with H3K27cr) (Homo sapiens, UniProt Q03111)
- Sequence (Q03111 1-148): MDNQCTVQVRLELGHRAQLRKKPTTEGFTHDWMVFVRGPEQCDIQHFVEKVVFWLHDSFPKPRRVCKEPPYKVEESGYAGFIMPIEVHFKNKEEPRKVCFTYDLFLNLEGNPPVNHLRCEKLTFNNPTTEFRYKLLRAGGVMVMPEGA
- experiment_summary: biochemical
- test_conditions: ENL (YEATS)-H3K27cr HTRF (IC50, μM), Table 1
metric_name: IC50 (µM)

compound	target_of_assay	metric_name	unit_abbrev	relation_qualifier	test_value
CC(C)NC(=O)c1ccc2nc(-c3ccccn3)cn2c1	ENL YEATS domain (association with H3K27cr) (Homo sapiens, UniProt Q03111)	IC50	µM	=	14.8
O=C(CCN1CCCCC1=O)Nc1cccc(-c2cn3cc(C(=O)NC4CCC4)ccc3n2)c1	ENL YEATS domain (association with H3K27cr) (Homo sapiens, UniProt Q03111)	IC50	µM	=	0.265
COc1ccccc1-c1cn2cc(C(=O)NC(C)C)ccc2n1	ENL YEATS domain (association with H3K27cr) (Homo sapiens, UniProt Q03111)	IC50	µM	>	50
O=C(NC1CC(CO)C1)c1ccc2nc(-c3ccccc3)cn2c1 (centres unmarked)	ENL YEATS domain (association with H3K27cr) (Homo sapiens, UniProt Q03111)	IC50	µM	=	21.3
CC(C)NC(=O)c1ccc2nc(-c3ccccc3C(F)(F)F)cn2c1	ENL YEATS domain (association with H3K27cr) (Homo sapiens, UniProt Q03111)	IC50	µM	>	50

---

- experiment_summary: Half-life in mouse liver microsomes
- Type: in vitro ADME
- test_conditions: read-out: t1/2 (min) mouse liver microsomes
Listed here: items and their measured half-life.

given_smiles	half-life
O=C(NC1CCC1)c1ccc2nc(-c3cccc(NS(=O)(=O)CCCN4CCCCC4)c3)cn2c1	14.5 min
O=C(CCN1CCNCC1)Nc1cccc(-c2cn3cc(C(=O)NC4CCC4)ccc3n2)c1	323 min
O=C(NC1CCC1)c1ccc2nc(-c3cccc(NS(=O)(=O)CCN4CCCCC4)c3)cn2c1	7.83 min
O=C(CCCCN1CCCCC1)Nc1cccc(-c2cn3cc(C(=O)NC4CCC4)ccc3n2)c1	13.1 min
O=C(NC1CCC1)c1ccc2nc(-c3cccc(S(=O)(=O)NCCN4CCCCC4)c3)cn2c1	6.15 min
CC1(C)CCN(CCNS(=O)(=O)Nc2cccc(-c3cn4cc(C(=O)NC5CCC5)ccc4n3)c2)CC1	2.29 min
CC1CCN(CCNS(=O)(=O)Nc2cccc(-c3cn4cc(C(=O)NC5CCC5)ccc4n3)c2)CC1	4.04 min
O=C(NC1CCC1)c1ccc2nc(-c3cccc(NS(=O)(=O)NCCN4CCCCC4=O)c3)cn2c1	6.07 min

---

- target_of_assay: ENL(YEATS)-HiBiT (Homo sapiens, UniProt Q03111)
- Sequence (Q03111 1-138 limits assumed): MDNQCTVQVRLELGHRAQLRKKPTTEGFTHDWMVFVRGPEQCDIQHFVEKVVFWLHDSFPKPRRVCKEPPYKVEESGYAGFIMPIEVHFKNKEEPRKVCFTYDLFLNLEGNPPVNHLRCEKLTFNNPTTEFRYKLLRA
- test_conditions: read-out: ENL YEATS CETSA (IC50); Table 2; OCI/AML-2 cells expressing ENL(YEATS)-HiBiT
pIC50: −log10 of the molar value.
Listed here: items and their measured pIC50.

compound	pIC50
O=C(NC1Cc2ccccc2C1)c1ccc2nc(-c3ccccc3)cn2c1	< 4.30
CC(C)C1CC(NC(=O)c2ccc3nc(-c4ccccc4)cn3c2)C1 (stereo not drawn)	< 4.30
CC1CC(NC(=O)c2ccc3nc(-c4ccccc4)cn3c2)C1 (stereo not drawn)	< 4.30
Cc1ccc(C2CCC2NC(=O)c2ccc3nc(-c4ccccc4)cn3c2)c(C)c1 (stereo not drawn)	< 4.30
O=C(NC1(c2ccccc2)CCC1)c1ccc2nc(-c3ccccc3)cn2c1	< 4.30
O=C(NC1C2CC1C2)c1ccc2nc(-c3ccccc3)cn2c1 (stereo not drawn)	< 4.30
CC(C)NC(=O)c1ccc2nc(-c3ccc(OC(F)(F)F)cc3)cn2c1	< 4.00
Cc1ccc(-c2cn3cc(C(=O)NC(C)C)ccc3n2)cc1C	< 4.00
O=C(NC1CCCCC1O)c1ccc2nc(-c3ccccc3)cn2c1 (stereo not drawn)	< 4.00
CC(C)NC(=O)c1ccc2nc(-c3ccc(C(F)(F)F)cc3)cn2c1	< 4.00
CC(C)N(C)C(=O)c1ccc2nc(-c3ccccc3)cn2c1	< 4.00
CN(C(=O)c1ccc2nc(-c3ccccc3)cn2c1)C1CCC1	< 4.30
COc1ccccc1-c1cn2cc(C(=O)NC(C)C)ccc2n1	< 4.00
O=C(NC1Cc2ccccc21)c1ccc2nc(-c3ccccc3)cn2c1 (stereo not drawn)	< 4.30
O=C(NC1CCC(O)CC1)c1ccc2nc(-c3ccccc3)cn2c1 (stereo not drawn)	< 4.00
O=C(N[C@@H]1CC[C@@H]1c1ccccc1)c1ccc2nc(-c3ccccc3)cn2c1	< 4.30
CC(C)NC(=O)c1ccc2nc(-c3cccc(OC(F)(F)F)c3)cn2c1	< 4.00
CC(C)NC(=O)c1ccc2nc(-c3cccc(C(F)(F)F)c3)cn2c1	< 4.00

---

- experiment_summary: Half-life in human liver microsomes
- Format: in vitro ADME
- test_conditions: read-out: t1/2 (min) human liver microsomes

given_smiles	unit_abbrev	half-life
O=C(NCCN1CCCCC1)Nc1cccc(-c2cn3cc(C(=O)NC4CCC4)ccc3n2)c1	min	104
O=C(CCN1CCNCC1)Nc1cccc(-c2cn3cc(C(=O)NC4CCC4)ccc3n2)c1	min	2960
O=C(NCCN1CCCCC1)c1cccc(-c2cn3cc(C(=O)NC4CCC4)ccc3n2)c1	min	23.8
O=C(NC1CCC1)c1ccc2nc(-c3cccc(NS(=O)(=O)NCCN4CCCCC4)c3)cn2c1	min	22.6

---

- target_of_assay: ENL YEATS domain (association with H3K27cr) (Homo sapiens)
- experiment_summary: biochemical
- test_conditions: ENL (YEATS)-H3K27cr HTRF (IC50, μM), Table 2
Listed here: items and their measured IC50.

given_smiles	target_of_assay	unit_abbrev	relation_qualifier	IC50
O=C(N[C@H]1CCc2ccccc21)c1ccc2nc(-c3ccccc3)cn2c1	ENL YEATS domain (association with H3K27cr) (Homo sapiens)	µM	>	50
COC(=O)[C@@H](Cc1c[nH]c2ccccc12)NS(=O)(=O)Nc1cccc(-c2cn3cc(C(=O)NC(C)C)ccc3n2)c1	ENL YEATS domain (association with H3K27cr) (Homo sapiens)	µM	=	0.87
CC(C)NC(=O)c1ccc2nc(-c3cccc(NS(=O)(=O)NCCCC(=O)O)c3)cn2c1	ENL YEATS domain (association with H3K27cr) (Homo sapiens)	µM	=	0.69
O=C(NCCN1CCCCC1)Nc1cccc(-c2cn3cc(C(=O)NC4CCC4)ccc3n2)c1	ENL YEATS domain (association with H3K27cr) (Homo sapiens)	µM	=	0.153
CC(C)NC(=O)c1ccc2nc(-c3cccc(NS(=O)(=O)NCCCCCC#N)c3)cn2c1	ENL YEATS domain (association with H3K27cr) (Homo sapiens)	µM	=	0.55
O=C(CCN1CCCCC1=O)Nc1cccc(-c2cn3cc(C(=O)NC4CCC4)ccc3n2)c1	ENL YEATS domain (association with H3K27cr) (Homo sapiens)	µM	=	0.265
Cc1cc(-c2cn3cc(C(=O)NC(C)C)ccc3n2)ccn1	ENL YEATS domain (association with H3K27cr) (Homo sapiens)	µM	=	7.05
O=C(NC1CCC1)c1ccc2nc(-c3cccc(NS(=O)(=O)NCCN4CCC(F)(F)CC4)c3)cn2c1	ENL YEATS domain (association with H3K27cr) (Homo sapiens)	µM	=	0.206

---

- target_of_assay: BRD4 bromodomain 1 (BD1) (Homo sapiens, UniProt O60885)
- Construct: Selectivity against BRD4 bromodomain 1 (BD1), measured by HTRF; His; purchased Cayman 11720
- experiment_summary: BRD4 (BD1)-H4 tetra-acetylated HTRF histone-binding assay
- test_conditions: Table 2
pIC50: −log10 of the molar value.

molecule	pIC50
Cc1cccc(-c2cn3cc(C(=O)NC(C)C)ccc3n2)c1	< 4.30
CC(C)NC(=O)c1ccc2nc(-c3ccc(N)cc3)cn2c1	< 4.30
CC(C)NC(=O)c1ccc2nc(-c3ccccc3OC(F)(F)F)cn2c1	< 4.30
CC(C)NC(=O)c1ccc2nc(-c3cccc(NS(=O)(=O)NCCCCCC#N)c3)cn2c1	< 4.30
CC(C)NC(=O)c1ccc2nc(-c3cccc(NS(=O)(=O)NCCc4ccc(N)cc4)c3)cn2c1	< 4.30
O=C(NC1CCCC(O)C1)c1ccc2nc(-c3ccccc3)cn2c1 (stereo not drawn)	< 4.30
CC(C)NC(=O)c1ccc2nc(-c3cccc(NS(=O)(=O)NCCCC(=O)O)c3)cn2c1	< 4.30
O=C(NCc1cccnc1)c1ccc2nc(-c3ccccc3)cn2c1	< 4.30
CC(C)NC(=O)c1ccc2nc(-c3ccccc3)cn2c1	< 4.30

---

- target_of_assay: ENL YEATS domain (association with H3K27cr) (Homo sapiens, UniProt Q03111)
- experiment_summary: biochemical
- test_conditions: ENL (YEATS)-H3K27cr HTRF (IC50, μM), Table 1
metric_name: log10(IC50) (log10 of the value in µM)

compound	log10(IC50)
CC(C)NC(=O)c1ccc2nc(-c3cccc(N=S(=O)(F)N4CCC[C@@H]4C(=O)O)c3)cn2c1 (some centres unmarked)	-0.21
CC(C)NC(=O)c1ccc2nc(-c3cccc(NS(=O)(=O)NCCCn4ccnc4)c3)cn2c1	-0.48
O=C(NC1CCC1)c1ccc2nc(-c3cccc(S(=O)(=O)NCCN4CCCCC4)c3)cn2c1	-0.20
Cc1ccc(-c2cn3cc(C(=O)NC(C)c4cccnc4)ccc3n2)cc1 (centres unmarked)	1.00
O=C(NC1CCC(O)CC1)c1ccc2nc(-c3ccc(F)cc3)cn2c1 (centres unmarked)	0.85
COc1cccc(-c2cn3cc(C(=O)NC(C)C)ccc3n2)c1	1.38
